- ASSAY_OVERVIEW: Anticancer human tumor 997537-175-T-J1-PDC patient-derived colon adenocarcinoma cell line growth inhibition [POLQ];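 also: luminescence signal used as a surrogate for viable cells; spheroids exposed to drugs for seven days before readout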
- CONDITION_LABEL: 997537-175-T-J1-PDC complex spheroid viability, combination with POLQ inhibitors; second compound 10 µM; first compound 0.316 µM; stronger effect = lower value
This listing pairs compounds with measured viability, T/C.
EXPERIMENTAL_ENDPOINT: viability, T/C (%)

>>> numeric_result("CC1COCCN1c1cc(-c2ccnn2C)c2ccnc(-c3ccn[nH]3)c2n1 (stereo not drawn) + Nc1ccc(C#CCN(C(=O)Cc2ncc(C(F)(F)F)cc2C(F)(F)F)c2ccc(F)cc2)nn1")
39.2
>>> numeric_result("C=CCn1c(=O)c2cnc(Nc3ccc(N4CCN(C)CC4)cc3)nc2n1-c1cccc(C(C)(C)O)n1 + COC1C(OC(N)=O)C(O)C(Oc2ccc3c(O)c(NC(=O)c4ccc(O)c(CC=C(C)C)c4)c(=O)oc3c2C)OC1(C)C")
78.5
>>> numeric_result("COc1cccc2c1C(=O)c1c(O)c3c(c(O)c1C2=O)CC(O)(C(=O)CO)CC3OC1CC(N)C(O)C(C)O1 (stereo not drawn) + COC1C(OC(N)=O)C(O)C(Oc2ccc3c(O)c(NC(=O)c4ccc(O)c(CC=C(C)C)c4)c(=O)oc3c2C)OC1(C)C")
107
